TGI listing for selected compounds.
system: KM12 colon; assay: NCI tumour cell line growth inhibition, 48 h

Solved entries:
COC(=O)[C@H](Cc1ccccc1)NC(=O)c1ccc(CNC(=O)/C=C/c2ccc(OCc3ccccc3)cc2)cc1 | > 100 µM
O=P1(c2ccccc2)C(c2ccccc2)CCC1c1ccccc1 (stereo not given) | > 100 µM
CC1C(C)(C)C23CC12C1(OCCO1)C3Br (stereo not given) | > 100 µM
Cc1ccc(CNc2ccc3nc(CCC4CCCCC4)[nH]c3c2)cc1 | 9.05 µM
C=C1C2CCC3C4(C)CCCC(C)(C(=O)O)C4CCC3(C2)C1OC(=O)/C(C)=C/C (stereo not given) | 35.1 µM
CC(C)(C)OC(=O)NCC(CNC(=O)OC(C)(C)C)C(N)=O | > 100 µM
COc1cc(-c2nn(-c3cccc(NC(=O)Nc4ccc(Cl)c(C(F)(F)F)c4)c3)cc2-c2ccncc2)ccc1Cl | 3.91 µM
C[C@H](Nc1nc(N)c(N=O)c(=O)n1C)C(=O)O | > 10 µM

TGI for O=C1CCCCCCC2=C1C(Sc1ccccc1)CC2 (stereo not given) is > 100 µM

Record CCOP(=O)(OCC)Oc1c(OC)c2[nH]c(C(=O)OC)cc2c2c(C(=O)O)c[nH]c12 . Reported TGI: 81.3 µM
